# System: HEK293 cells
# Assay Notes: Preliminary screening as mRNA vectors, EGFP mRNA transfection of HEK293 cells
# Format: cell-based
# Test Settings: EGFP mRNA 50 ng per well, 96-well plates; percentage of GFP fluorescent cells relative to total number of cells (Hoechst)
# Description: Cell line: HEK293 cells (ATCC CRL-1573™) Medium: DMEM supplemented with 10% fetal bovine serum (Invitrogen) Screening: cell transfection on 96-well plates Detection (readout): percentage of the number of GFP fluorescent cells relative to the total number of cells (the total number of cells was determined using nucleus dye Hoechst). Lipofectamine2000 (Invitrogen) was used as the positive control. […]
Just so you know, the groups by Absolute mRNA transfection efficiency in HEK293 cells go like this: low (below 2%), intermediate (2% to below 10%), high (10% or more)

# Compound, Assigned Label
records = [
    ("CCCCCCCCCCCCCCCCCCNc1nc(NCCCN(C)C)nc(SCCCCCCCCCCCCCC)n1 [Compound D6S14N18]", "low"),
    ("CCCCCCCCCCCSc1nc(NCCCCCCCCC)nc(NCCN2CCN(C)CC2)n1 [Compound D5S11N9]", "high"),
    ("CCCCCCCCCSc1nc(NCCN(C)C)nc(SCCCCCCCC)n1 [Compound D1S8S9]", "intermediate"),
    ("CCCCCCCCCCCCCCCCNc1nc(NCCN(C)C)nc(SCCCCCCC)n1 [Compound D1S7N16]", "high"),
    ("CCCCCCCCCCCCCCCNc1nc(NCCN(CC)CC)nc(SCCCCCCCCC)n1 [Compound D7S9N15]", "high"),
    ("CCCCCCCCCCCNc1nc(NCCCN(C)C)nc(SCCCCCC)n1 [Compound D6S6N11]", "intermediate"),
    ("CCCCCCCCCCCCCCCSc1nc(NCCCCCCCC)nc(NCCN(CC)CC)n1 [Compound D7S15N8]", "high"),
    ("CCCCCCCCCCCCNc1nc(NCCCN(C)C)nc(SCCCCCCCCCC)n1 [Compound D6S10N12]", "high"),
    ("CCCCCCCCCCCCCCCNc1nc(NCCCN(C)C)nc(SCCCCCCCCCCC)n1 [Compound D6S11N15]", "high"),
    ("CCCCCCCCCCSc1nc(NCCCCCC)nc(NCCCN(C)C)n1 [Compound D6S10N6]", "low"),
    ("CCCCCCCCCCCCSc1nc(NCCN2CCOCC2)nc(SCCCCCC)n1 [Compound D2S6S12]", "low"),
    ("CCCCCCCCCCCCCCCCCCNc1nc(NCCN2CCOCC2)nc(SCCCCCC)n1 [Compound D2S6N18]", "intermediate"),
    ("CCCCCCCCCSc1nc(NCCCCCCCC)nc(NCCN2CCCC2)n1 [Compound D3S9N8]", "high"),
    ("CCCCCCCCCCCCSc1nc(NCCCCCCCCC)nc(NCCN2CCCCC2)n1 [Compound D4S12N9]", "low"),
]

----------
Reported Absolute DNA transfection efficiency in HEK293 cells values for a set of compounds
# Test system: HEK293 cells
# Assay Notes: Preliminary screening as DNA vectors, GFP transfection of HEK293 cells
# Type: cell-based
# Test Settings: HEK293 cells; lipid/DOPE liposome with 75 ng plasmid DNA (psin-EGFP-IRES-Puro); number of cells expressing GFP divided by total number of nuclei (Hoechst)
Endpoint Label: Absolute DNA transfection efficiency in HEK293 cells (%)

# Input Smiles, Unit Info, Reported Result
measured = [
    ("CCCCCCCCCCCCCCCCCCNc1nc(NCCCCCCCCC)nc(NCCN(CC)CC)n1", "%", 3.0),
    ("CCCCCCCCCCCCSc1nc(NCCN2CCN(C)CC2)nc(SCCCCCCCCCCC)n1", "%", 2.8),
    ("CCCCCCCCCCCCCCCNc1nc(NCCCCCCCCCCCCCCC)nc(NCCN(C)C)n1", "%", 2.3),
    ("CCCCCCCCCCCCCNc1nc(NCC2CCN(C)CC2)nc(N(CCCCCCCCCCCC)CCCCCCCCCCCC)n1", "%", 0.0),
    ("CCCCCCCCCCCCCCCCCCNc1nc(NCCCCCCC)nc(NCCN2CCOCC2)n1", "%", 0.0),
    ("CCCCCCCCCCCCCCCCCCSc1nc(NCCN2CCN(C)CC2)nc(SCCCCCCCCCCC)n1", "%", 1.7),
    ("CCCCCCCCCCCCN(CCCCCCCCCCCC)c1nc(NCCCCCCC)nc(NCCCN(C)C)n1", "%", 0.7),
    ("CCCCCCCCCCCCSc1nc(NCCN2CCOCC2)nc(SCCCCCCCCCCC)n1", "%", 0.1),
    ("CCCCCCCCCCCCCNc1nc(NCCN(C)C)nc(N(CCCCCCCCCCCC)CCCCCCCCCCCC)n1", "%", 1.2),
    ("CCCCCCCCCCCCCCCCCCSc1nc(NCCN2CCCCC2)nc(SCCCCCCCCC)n1", "%", 5.5),
    ("CCCCCCCCCCCCCCCCNc1nc(NCCCCCCCCCCC)nc(NCCN2CCCCC2)n1", "%", 0.1),
    ("CCCCCCCCCCCCCCSc1nc(NCCN2CCCC2)nc(SCCCCCCCCCCCC)n1", "%", 6.5),
    ("CCCCCCCCCCCCCCCCCCSc1nc(NCCN(C)C)nc(SCCCCCCCCCCC)n1", "%", 0.6),
    ("CCCCCCCCCCCCCCCCCCSc1nc(NCCN2CCN(C)CC2)nc(SCCCCCCCCCCCCCC)n1", "%", 0.2),
    ("CCCCCCCCCCCCCCCCSc1nc(NCCN(CC)CC)nc(SCCCCCCCCCC)n1", "%", 3.1),
    ("CCCCCCCCCCCCCCCCCCNc1nc(NCCCCCCCCCCCC)nc(NCCN(CC)CC)n1", "%", 1.2),
    ("CCCCCCCCCCCCCNc1nc(NCCCCCC)nc(NCCN2CCCCC2)n1", "%", 0.0),
    ("CCCCCCCCNc1nc(NCCCCCCCC)nc(NCCN2CCOCC2)n1", "%", 0.0),
    ("CCCCCCCCCCCCCCCCCCSc1nc(NCCN(CC)CC)nc(SCCCCCCCC)n1", "%", 9.2),
    ("CCCCCCCCCCCCCNc1nc(NCCCCCCCC)nc(NCCN(CC)CC)n1", "%", 0.0),
    ("CCCCCCCCCCCCNc1nc(NCCCCCCCCCCCC)nc(NCCCN2CCN(C)CC2)n1", "%", 0.0),
    ("CCCCCCCCCCCCCCCCNc1nc(NCCCCCCCC)nc(NCCCN(C)C)n1", "%", 2.4),
    ("CCCCCCCCCCCCN(CCCCCCCCCCCC)c1nc(NCCN2CCCCC2)nc(N(CCCCCCCCCCCC)CCCCCCCCCCCC)n1", "%", 0.0),
    ("CCCCCCCCCCCCCCCCSc1nc(NCC2CCN(C)CC2)nc(SCCCCCCCC)n1", "%", 75.2),
    ("CCCCCCCCCCCNc1nc(NCCCCCCCCCCC)nc(NCCN(C)C)n1", "%", 0.9),
    ("CCCCCCCCCCCCCCSc1nc(NCCN2CCOCC2)nc(SCCCCCCCCCC)n1", "%", 1.5),
    ("CCCCCCCCCCCCCCCCNc1nc(NCCCCCC)nc(NCC2CCN(C)CC2)n1", "%", 0.7),
    ("CCCCCCCCCCCCCCCCNc1nc(NCCCCCCCCCCC)nc(NCC2CCN(C)CC2)n1", "%", 0.6),
    ("CCCCCCCCCCCCSc1nc(NCCCN2CCOCC2)nc(SCCCCCCCCCC)n1", "%", 20.9),
    ("CCCCCCCCCCCSc1nc(NCC2CCN(C)CC2)nc(SCCCCCCCCCCC)n1", "%", 12.2),
    ("CCCCCCCNc1nc(NCCCCCCC)nc(NCCN(C)C)n1", "%", 0.0),
    ("CCCCCCCCCCCSc1nc(NCCCN2CCN(C)CC2)nc(SCCCCCCCCC)n1", "%", 8.5),
]

----------
# Assay Notes: Particle size and PDI of lipid nanoparticles (Nano-ZSZEN3600, Malvern)
# Format: physicochemical
# Test Settings: LNPs, Formulation Method 1
# Description: […] Characterization of particle size: the particle size and PDI of the prepared lipid nanoparticles were determined by Nano-ZSZEN3600 (Malvern). […]
Entries annotated with measured PDI

# Input Smiles, PDI
rows = [
    ("CCCCCCCCCCCCCCCSc1nc(NCCCCCCCCCCC)nc(NCCN2CCN(C)CC2)n1", 0.02),
    ("CCCCCCCCCCCCCCCCSc1nc(NCC2CCN(C)CC2)nc(SCCCCCCCCCC)n1", 0.03),
    ("CCCCCCCCCCCCCCCCSc1nc(NCCN2CCN(C)CC2)nc(SCCCCCCCCC)n1", 0.04),
    ("CCCCCCCC/C=C\\CCCCCCCCSc1nc(OCC2CCN(C)CC2)nc(SCCCCCCCCC)n1", 0.04),
]

Each recorded value in this set is attributed to patent US20230123334A1.
